- PROCEDURE_TEXT: chemical genetic growth profiling, strain panel (AID 1159580);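 further: tested at 20 µM; growth read once vehicle control cultures reached saturation at 30 °C; 1 = growth at the plate median or of vehicle wells; lower values mean less growth of the strain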
- PARTICULARS: S. cerevisiae deletion strains, growth OD, locus YOR184W, strain ser1, stronger effect = lower value
Hit rate of the full screen: of about 5,500 compounds, about 2,000 (36%) were called active. Inconclusive results (about 18%) are left out. The list shows a part of the results.
Consider the following molecules; for each one, report its normalized growth.
I only need the number, thanks.

# query: normalized growth of entry `COc1c(O)cc(O)cc1O`
1.1

# query: normalized growth of entry CC(C)CCCC(C)C1CCC2C3CCC4CC(=O)CCC4(C)C3CCC12C (configuration not stated)
1.07

# query: normalized growth of entry `CNC(=O)CSP(=S)(OC)OC`
1.04

# query: normalized growth of entry C[C@]12C=CC(=O)C=C1CCC1C2CC[C@]2(C)C(=O)CCC12 (some centres not stated)
0.985

# query: normalized growth of entry `COc1cc(O)c(C)c(O)c1`
1.02

# query: normalized growth of entry C[C@]12CCC3C(CC[C@H]4CC(=O)CC[C@]34C)C1CCC2=O (some centres not stated)
0.658

# query: normalized growth of entry `COc1cc(O)c(C(C)=O)c(OC)c1`
1.03

* * *

- PROCEDURE_TEXT: chemical genetic growth profiling, strain panel (AID 1159580)
- PARTICULARS: S. cerevisiae deletion strains, growth OD, locus YCL069W, strain vba3, stronger effect = lower value
Among all 5,500 compounds or so, about 2,000 (36%) were called active. About 18% were inconclusive and are not listed. The list shows a part of the results.
MEASURED_METRIC: normalized growth
I only need the number, thanks.

# query: normalized growth of entry C[N+]1(C)C2CC[C@H]1CC(OC(=O)C(O)c1ccccc1)C2 (some centres not stated)
0.996

# query: normalized growth of entry CCOc1nc2cccc(C(=O)OC(C)OC(=O)OC3CCCCC3)c2n1Cc1ccc(-c2ccccc2-c2nn[nH]n2)cc1 (configuration not stated)
1.05

# query: normalized growth of entry CC(=O)OC1CCC23C(=O)OC45CCC(C6=CC(=O)OC6)C4(C)CCC2C5CCC3(O)C1 (configuration not stated)
0.979

# query: normalized growth of entry `CCOc1ccc(Cc2nccc3cc(OCC)c(OCC)cc23)cc1OCC`
0.99

# query: normalized growth of entry `CCCCC(=O)N(Cc1ccc(-c2ccccc2-c2nn[nH]n2)cc1)[C@H](C(=O)O)C(C)C`
0.99

# query: normalized growth of entry `CCCc1nc(C(C)(C)O)c(C(=O)OCc2oc(=O)oc2C)n1Cc1ccc(-c2ccccc2-c2nn[nH]n2)cc1`
0.987

# query: normalized growth of entry `C=C(C)c1cc2cc(C(C)=O)c(O)cc2o1`
0.964

* * *

- PROCEDURE_TEXT: chemical genetic growth profiling, strain panel (AID 1159580)
- PARTICULARS: S. cerevisiae deletion strains, growth OD, locus YEL037C, strain rad23, stronger effect = lower value
Among all 5,500 compounds or so, about 2,000 (36%) were called active. Another 18% or so got no clear call; they are omitted. Some of the results follow.
Consider the following compounds; for each one, report its normalized growth.
I only need the number, thanks.

# query: normalized growth of entry CC1=C(C(=O)O)N2C(=O)[C@@H](NC(=O)[C@H](N)C3=CCC=CC3)C2SC1 (stereo partly specified)
1.02

# query: normalized growth of entry CC(C)(O)CC[C@@H](O)[C@](C)(O)C1CC[C@@]2(O)C3=CC(=O)C4C[C@@H](O)[C@@H](O)C[C@]4(C)C3CC[C@]12C (stereo partly specified)
0.992

# query: normalized growth of entry `Cn1c(=O)[nH]c(=O)c2[nH]cnc21`
1

# query: normalized growth of entry `O=C(O)c1cccc(O)c1O`
1.02

# query: normalized growth of entry `Cc1c(N(C)CS(=O)(=O)O)c(=O)n(-c2ccccc2)n1C`
1.01

# query: normalized growth of entry `CCNc1nc(Cl)nc(NC(C)C)n1`
1.01

# query: normalized growth of entry Cn1nnnc1SCC1=C(C(=O)O)N2C(=O)C(NC(=O)C(OC=O)c3ccccc3)C2SC1 (stereo unspecified)
0.994

# query: normalized growth of entry `C[C@H]1C(=O)O[C@@H]2CCN3CC=C(COC(=O)[C@](C)(O)[C@]1(C)O)[C@H]23`
0.996

# query: normalized growth of entry `O=C(O)c1cc2cc(Cl)ccc2[nH]1`
0.98

# query: normalized growth of entry O=C1OC(=O)C2C3CCC(O3)C12 (stereo unspecified)
1.02

# query: normalized growth of entry `COc1cc(O)c(C)c(O)c1`
1.02

* * *

- PROCEDURE_TEXT: chemical genetic growth profiling, strain panel (AID 1159580);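 further: tested at 20 µM; growth read once vehicle control cultures reached saturation at 30 °C; 1 = growth at the plate median or of vehicle wells; lower values mean less growth of the strain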
- PARTICULARS: S. cerevisiae deletion strains, growth OD, locus YOL136C, strain PFK27, stronger effect = lower value
Screen size: about 5,500 compounds; about 2,000 (36%) were called active. Not shown: some 18% with an inconclusive outcome. The list shows a part of the results.
# MET = normalized growth below 0.9 (exclusive); NOT MET = normalized growth at/above 0.9

For `N#C/C(=N/Nc1ccc(Cl)cc1)C(=O)C1CC1` , is the recorded normalized growth below the cut-off of 0.9?
MET

For CCOC(=O)C1C(c2ccc(Br)cc2)C(C(=O)OCC)C(O)(C(F)(F)F)NC1(O)C(F)(F)F (stereo unspecified) , is the recorded normalized growth below the cut-off of 0.9?
NOT MET

For `N#C/C(=N/Nc1ccc(Cl)cc1)C(N)=S` , is the recorded normalized growth below the cut-off of 0.9?
MET

For `O=C(NCc1ccc(F)c(Cl)c1)Nc1csc([N+](=O)[O-])c1` , is the recorded normalized growth below the cut-off of 0.9?
NOT MET

For `O=C(Oc1ccc(C2SCCS2)cc1)c1cccs1` , is the recorded normalized growth below the cut-off of 0.9?
MET

* * *

- PROCEDURE_TEXT: chemical genetic growth profiling, strain panel (AID 1159580);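 further: tested at 20 µM; growth read once vehicle control cultures reached saturation at 30 °C; 1 = growth at the plate median or of vehicle wells; lower values mean less growth of the strain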
- PARTICULARS: S. cerevisiae deletion strains, growth OD, locus YJR066W, strain TOR1 (second series), stronger effect = lower value
About 2,000 (36%) of roughly 5,500 compounds were called active. Not shown: some 18% with an inconclusive outcome. This is one part of the list.
MEASURED_METRIC: normalized growth
I only need the number, thanks.

# query: normalized growth of entry `Cc1oc(-c2ccc(Cl)cc2)cc1C(=O)N1CCN(c2ccc(C(F)(F)F)cn2)CC1`
0.975

# query: normalized growth of entry `Cc1ccc(C(=O)Nc2ccc3ccccc3n2)cc1`
0.918

# query: normalized growth of entry `CSc1sc(-c2ccn[nH]2)c(-c2ccccc2)c1C#N`
0.92

# query: normalized growth of entry `O=C(SCc1c(Cl)cccc1Cl)c1ccc([N+](=O)[O-])o1`
0.351

# query: normalized growth of entry `Nc1ccccc1C(=O)N/N=C\c1cc(Cl)cc(Cl)c1O`
0.404

# query: normalized growth of entry `CN(NC(=S)Nc1cc(Cl)ccc1Cl)c1ccc(C(F)(F)F)cc1[N+](=O)[O-]`
0.915

# query: normalized growth of entry `O=C(OCc1ccc(Oc2ccc(Cl)cc2Cl)c([N+](=O)[O-])c1)c1ccc([N+](=O)[O-])o1`
0.971

# query: normalized growth of entry `Cc1nc(C(F)(F)F)ccc1C(=O)Sc1nnc(-c2ccc(C(F)(F)F)nc2C)o1`
0.716

# query: normalized growth of entry CCOC(=O)C(NC(C)=O)(Nc1ccc(F)c(Cl)c1)C(F)(F)F (stereo not given)
0.997

# query: normalized growth of entry CC1CCc2c(sc3ncnc(Sc4ccccc4)c23)C1 (stereo not given)
0.948

* * *

- PROCEDURE_TEXT: chemical genetic growth profiling, strain panel (AID 1159580);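 further: tested at 20 µM; growth read once vehicle control cultures reached saturation at 30 °C; 1 = growth at the plate median or of vehicle wells; lower values mean less growth of the strain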
- PARTICULARS: S. cerevisiae deletion strains, growth OD, locus YDL192W, strain arf1, stronger effect = lower value
The whole screen tested about 5,500 compounds, of which about 2,000 (36%) were called active. Not shown: some 18% with an inconclusive outcome. The list shows a part of the results.
Consider the following compounds; for each one, report its normalized growth.
I only need the number, thanks.

# query: normalized growth of entry `NCCS`
1.01

# query: normalized growth of entry CC(=O)OC1CCC23C(=O)OC45CCC(C6=CC(=O)OC6)C4(C)CCC2C5CCC3(O)C1 (centres undefined)
1.03

# query: normalized growth of entry CCOC(=O)C1=C(C)NC(C)=C(C(=O)OC)C1c1cccc([N+](=O)[O-])c1 (centres undefined)
1

# query: normalized growth of entry CCOc1nc2cccc(C(=O)OC(C)OC(=O)OC3CCCCC3)c2n1Cc1ccc(-c2ccccc2-c2nn[nH]n2)cc1 (centres undefined)
1

# query: normalized growth of entry `CN1CCN(C(c2ccccc2)c2ccccc2)CC1`
0.971

# query: normalized growth of entry `CCCc1nc(C(C)(C)O)c(C(=O)OCc2oc(=O)oc2C)n1Cc1ccc(-c2ccccc2-c2nn[nH]n2)cc1`
0.985

# query: normalized growth of entry CN1Cc2c(N)cccc2C(c2ccccc2)C1 (centres undefined)
1.02

# query: normalized growth of entry `Fc1ccc(C(c2ccc(F)cc2)N2CCN(C/C=C/c3ccccc3)CC2)cc1`
0.973

# query: normalized growth of entry C/C=C(\C)C(=O)OC1[C@@H]2C=C3C4CC(=O)O[C@@H](c5ccoc5)[C@]4(C)CCC3[C@@](C)(C2=O)[C@@H](C(O)C(=O)OC)C1(C)C (some centres undefined)
1.01
